conditions: cell viability/%
Where a SMILES comes first, the peptide text is derived from it. [ ]: non-standard residue; d: D form. The star is where a group is joined. NHCH2CH2OH = OCCN*; For = O=C*
Listed compounds paired with reported viability

Below, each entry is followed by its recorded viability result.
| compound | measured-value |
| --- | --- |
| CC(C)C[C@@H](NC(=O)[C@H](C)NC(=O)CNC(=O)[C@@H](NC=O)C(C)C)C(=O)N[C@@H](C)C(=O)N[C@H](CC(C)C)C(=O)N[C@H](C(=O)N[C@@H](C(=O)N[C@@H](Cc1c[nH]c2ccccc12)C(=O)N[C@H](CC(C)C)C(=O)N[C@@H](Cc1c[nH]c2ccccc12)C(=O)N[C@@H](C(=O)N[C@@H](Cc1c[nH]c2ccccc12)C(=O)N[C@H](CC(C)C)C(=O)N[C@@H](Cc1c[nH]c2ccccc12)C(=O)NCCO)C(C)C)[C@H](C)O)C(C)C [compound 8604] (For-VGA[dL]A[dL]V[dT]W[dL]W[dV]W[dL]W-NHCH2CH2OH) | 54.4% |
| CNC(=O)C[C@@H](NC(=O)[C@H](Cc1c[nH]c2ccccc12)NC(=O)[C@H](NC(=O)[C@H](Cc1c[nH]c2ccccc12)NC(=O)[C@H](NC(=O)[C@H](Cc1c[nH]c2ccccc12)NC(=O)[C@@H](CC(C)C)NC(=O)[C@@H](NC(=O)[C@@H](CC(C)C)NC(=O)[C@H](C)NC(=O)[C@@H](CC(C)C)NC(=O)[C@H](C)NC(=O)CNC(=O)[C@@H](NC=O)C(C)C)C(C)C)C(C)C)C(C)C)C(=O)N[C@@H](Cc1c[nH]c2ccccc12)C(=O)NCCO [compound 6265] (For-VGA[dL]A[dL]V[dL]W[dV]W[dV]W[dD](NHMe)W-NHCH2CH2OH) | 79.9% |
| CC(C)C[C@@H](NC(=O)[C@H](Cc1c[nH]c2ccccc12)NC(=O)[C@H](NC(=O)[C@@H](NC(=O)[C@H](NC(=O)[C@H](C)NC(=O)[C@H](NC(=O)[C@H](C)NC(=O)CNC(=O)[C@@H](NC=O)C(C)C)C(C)C)C(C)C)C(C)C)C(C)C)C(=O)N[C@@H](Cc1c[nH]c2ccccc12)C(=O)N[C@H](CC(C)C)C(=O)N[C@@H](Cc1c[nH]c2ccccc12)C(=O)N[C@@H](C(=O)N[C@@H](Cc1c[nH]c2ccccc12)C(=O)NCCO)C(C)C [compound 5742] (For-VGA[dV]A[dV]V[dV]W[dL]W[dL]W[dV]W-NHCH2CH2OH) | 11.1% |

We next turn to a different compound, shown below.
Query string: Returns the measured viability for the input compound. Input: CC(C)C[C@@H](NC(=O)[C@H](C)NC(=O)CNC(=O)[C@@H](NC=O)C(C)C)C(=O)N[C@@H](C)C(=O)N[C@@H](C(=O)N[C@H](C(=O)N[C@H](CC(C)C)C(=O)N[C@@H](Cc1c[nH]c2ccccc12)C(=O)N[C@H](CC(C)C)C(=O)N[C@@H](Cc1c[nH]c2ccccc12)C(=O)N[C@@H](C(=O)N[C@@H](Cc1c[nH]c2ccccc12)C(=O)N[C@@H](C(=O)N[C@@H](Cc1c[nH]c2ccccc12)C(=O)NCCO)[C@H](C)O)[C@H](C)O)C(C)C)C(C)C [compound 4328] (For-VGA[dL]A[dV]V[dL]W[dL]W[dT]W[dT]W-NHCH2CH2OH)
Result string: 100%
